# Tested on: Escherichia coli NIHJ
Outcome measure: MIC (µg/mL)

1. CC1(C)S[C@@H]2[C@H](NC(=O)[C@H](NC(=O)c3cncnc3O)c3ccccc3)C(=O)N2[C@H]1C(=O)O = 25

(A) CC1(C)S[C@@H]2[C@H](NC(=O)[C@H](NC(=O)c3cnccc3O)c3ccccc3)C(=O)N2[C@H]1C(=O)O
(B) Cc1ccc(C(=O)N[C@@H](C(=O)N[C@@H]2C(=O)N3[C@@H]2SC(C)(C)[C@@H]3C(=O)O)c2ccccc2)c(O)n1
(C) CC1(C)S[C@@H]2[C@H](NC(=O)[C@H](NC(=O)c3ncccc3O)c3ccccc3)C(=O)N2[C@H]1C(=O)O
Falling order of MIC, please. // format: requested-order list of labels
A, B, C
(A: 25 µg/mL, B: 12.5 µg/mL, C: 6.25 µg/mL)

Values from patent US4005075A
